target: CYP1A2 (Homo sapiens); assay: Inhibition of CYP1A2 at 10 uM; type: ADME
Sequence (P05177 whole entry): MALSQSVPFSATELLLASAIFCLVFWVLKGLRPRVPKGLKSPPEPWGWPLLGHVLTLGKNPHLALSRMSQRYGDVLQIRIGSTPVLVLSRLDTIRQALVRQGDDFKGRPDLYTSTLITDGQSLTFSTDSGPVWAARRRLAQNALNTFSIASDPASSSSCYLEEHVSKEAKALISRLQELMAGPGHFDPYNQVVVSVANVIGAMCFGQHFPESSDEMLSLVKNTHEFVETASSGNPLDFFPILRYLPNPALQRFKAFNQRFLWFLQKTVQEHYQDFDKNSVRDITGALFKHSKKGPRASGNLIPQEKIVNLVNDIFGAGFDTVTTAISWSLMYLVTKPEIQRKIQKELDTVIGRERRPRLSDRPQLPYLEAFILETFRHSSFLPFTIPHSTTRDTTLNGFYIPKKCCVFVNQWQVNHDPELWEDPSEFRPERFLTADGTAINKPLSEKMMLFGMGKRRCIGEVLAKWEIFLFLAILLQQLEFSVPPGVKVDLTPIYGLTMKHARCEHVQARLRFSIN
Items are presented alongside their recorded inhibition at 10 µM.
Provide only the numeric value, understood in %.

smi=COc1cccc(CN(CCCN(C)C)C(=O)c2cn(C)c3cc(-c4cn[nH]c4)ccc23)c1 recorded_result=4
smi=COc1cccc(CNC(=O)c2[nH]c3nc(-c4cn[nH]c4)ccc3c2CN2CCN(C)CC2)c1 recorded_result=-15
smi=COc1cccc(CNC(=O)c2cc3ccc(-c4cn[nH]c4)nc3n2C)c1 recorded_result=1
smi=COc1cccc(CN(C(=O)c2cc3ccc(-c4cn[nH]c4)nc3[nH]2)C2CC2)c1 recorded_result=16

# context switch: different molecule, same inhibition at 10 µM
inhibition at 10 µM lookup needed for COc1cccc(CNC(=O)c2[nH]c3cc(-c4cn[nH]c4)ccc3c2CN(C)C)c1 , thanks. 18

###

target: CYP2D6 (Homo sapiens); assay: Inhibition of CYP2D6 at 10 uM; format: ADME
Sequence (P10635 whole entry): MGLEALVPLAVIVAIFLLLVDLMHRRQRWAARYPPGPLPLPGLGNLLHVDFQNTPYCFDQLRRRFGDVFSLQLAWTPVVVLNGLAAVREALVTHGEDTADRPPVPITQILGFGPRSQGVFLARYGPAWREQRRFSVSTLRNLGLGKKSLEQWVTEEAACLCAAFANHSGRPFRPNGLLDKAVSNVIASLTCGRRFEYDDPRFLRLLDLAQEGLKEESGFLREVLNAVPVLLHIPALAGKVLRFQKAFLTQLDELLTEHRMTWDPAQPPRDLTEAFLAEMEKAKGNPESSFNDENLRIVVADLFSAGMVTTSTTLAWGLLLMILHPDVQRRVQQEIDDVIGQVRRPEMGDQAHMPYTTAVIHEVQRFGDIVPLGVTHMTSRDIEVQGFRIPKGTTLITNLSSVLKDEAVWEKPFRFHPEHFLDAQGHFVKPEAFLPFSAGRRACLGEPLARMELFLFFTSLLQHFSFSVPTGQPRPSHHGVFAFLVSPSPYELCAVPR
Items are presented alongside their recorded inhibition at 10 µM.
Provide only the numeric value, understood in %.

smi=COc1cccc(CNC(=O)c2cc3ccc(-c4cn[nH]c4)nc3n2C)c1 recorded_result=48
smi=COc1cccc(CN(CCCN(C)C)C(=O)c2cn(C)c3cc(-c4cn[nH]c4)ccc23)c1 recorded_result=31
smi=COc1cccc(CN(C)C(=O)c2cc3ccc(-c4cn[nH]c4)nc3[nH]2)c1 recorded_result=52
smi=COc1cccc(CNC(=O)c2cn(C)c3cc(-c4cn[nH]c4)ccc23)c1 recorded_result=53
smi=COc1cccc(CN(C(=O)c2cc3ccc(-c4cn[nH]c4)nc3[nH]2)C2CC2)c1 recorded_result=30

# context switch: different compound, same inhibition at 10 µM
inhibition at 10 µM lookup needed for COc1cccc(CN(CCN2CCCC2)C(=O)c2cc3ccc(-c4cn[nH]c4)nc3[nH]2)c1 , thanks. 52

###

Items are presented alongside their recorded pIC50.
assay: Inhibition of myosin light chain bisphosphorylation by cell-based assay
Scale note: pIC50 = -log10(concentration in M).

smi=COc1cccc(CN(C)C(=O)c2cn(C)c3cc(-c4cn[nH]c4)ccc23)c1 measured_metric=pIC50 recorded_result=7.77
smi=COc1cccc(CN(CCN(C)C)C(=O)c2cn(C)c3cc(-c4cn[nH]c4)ccc23)c1 measured_metric=pIC50 recorded_result=7.47
smi=COc1cccc(CN(C)C(=O)c2cc3ccc(-c4cn[nH]c4)nc3[nH]2)c1 measured_metric=pIC50 recorded_result=7.60
smi=COc1cccc(CNC(=O)c2[nH]c3cc(-c4cn[nH]c4)ccc3c2CN2CCOCC2)c1 measured_metric=pIC50 recorded_result=6.89

pIC50 lookup needed for COc1cccc(CNC(=O)c2cn(C)c3cc(-c4cn[nH]c4)ccc23)c1 , thanks. 8.40

###

Items are presented alongside their recorded log10 of IC50.
target: Rho-associated protein kinase 2 (Homo sapiens, UniProt O75116)
Sequence (O75116 whole entry): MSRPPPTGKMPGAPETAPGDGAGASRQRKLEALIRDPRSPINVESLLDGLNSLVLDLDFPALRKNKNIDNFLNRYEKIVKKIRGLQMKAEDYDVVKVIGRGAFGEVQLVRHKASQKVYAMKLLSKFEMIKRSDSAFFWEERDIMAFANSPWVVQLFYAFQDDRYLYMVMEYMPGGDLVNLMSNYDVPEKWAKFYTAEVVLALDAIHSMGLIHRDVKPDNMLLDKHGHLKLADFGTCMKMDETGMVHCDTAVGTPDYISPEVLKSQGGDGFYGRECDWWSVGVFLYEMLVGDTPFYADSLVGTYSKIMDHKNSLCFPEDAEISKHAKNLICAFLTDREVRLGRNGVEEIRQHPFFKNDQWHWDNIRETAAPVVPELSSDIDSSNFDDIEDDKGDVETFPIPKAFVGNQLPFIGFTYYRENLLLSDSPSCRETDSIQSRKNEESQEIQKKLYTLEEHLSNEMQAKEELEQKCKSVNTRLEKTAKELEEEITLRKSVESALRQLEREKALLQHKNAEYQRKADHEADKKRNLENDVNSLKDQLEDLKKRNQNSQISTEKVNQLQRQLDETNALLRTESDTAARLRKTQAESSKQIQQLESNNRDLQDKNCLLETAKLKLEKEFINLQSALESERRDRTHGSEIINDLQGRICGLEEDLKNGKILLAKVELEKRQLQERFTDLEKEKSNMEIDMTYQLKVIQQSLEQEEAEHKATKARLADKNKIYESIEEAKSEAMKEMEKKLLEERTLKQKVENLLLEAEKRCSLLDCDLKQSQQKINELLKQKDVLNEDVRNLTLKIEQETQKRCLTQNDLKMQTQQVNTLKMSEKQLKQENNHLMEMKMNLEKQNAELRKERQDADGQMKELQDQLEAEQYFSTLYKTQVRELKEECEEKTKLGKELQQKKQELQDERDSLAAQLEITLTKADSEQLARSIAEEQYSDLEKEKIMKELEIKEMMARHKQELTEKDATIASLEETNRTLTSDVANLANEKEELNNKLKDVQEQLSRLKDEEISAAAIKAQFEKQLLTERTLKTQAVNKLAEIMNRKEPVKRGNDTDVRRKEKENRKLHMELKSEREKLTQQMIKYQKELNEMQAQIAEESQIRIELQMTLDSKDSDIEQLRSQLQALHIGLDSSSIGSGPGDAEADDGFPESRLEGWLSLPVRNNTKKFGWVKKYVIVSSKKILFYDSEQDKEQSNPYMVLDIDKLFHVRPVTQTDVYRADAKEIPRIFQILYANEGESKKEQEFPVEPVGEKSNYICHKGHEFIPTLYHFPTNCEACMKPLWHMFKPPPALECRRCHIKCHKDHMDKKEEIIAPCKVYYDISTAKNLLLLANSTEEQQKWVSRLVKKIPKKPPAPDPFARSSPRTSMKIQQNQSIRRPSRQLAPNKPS
Heads up: the numbers are on a log10 scale; they represent IC50 in nM.

Recorded log10 of IC50, per entry:
smi=COc1cccc(CN(C)C(=O)c2cn(CCN(C)C)c3cc(-c4cn[nH]c4)ccc23)c1 recorded_result=0.95
smi=COc1cccc(CN(CC[N+]2(C)CCCC2)C(=O)c2cc3ccc(-c4cn[nH]c4)nc3n2C)c1 recorded_result=3.28
smi=COc1cccc(CN(C)C(=O)c2cc3ccc(-c4cn[nH]c4)cc3[nH]2)c1 recorded_result=0.48

# context switch: different compound, same log10 of IC50
log10 of IC50 lookup needed for COc1cccc(CNC(=O)c2cc3ccc(-c4cn[nH]c4)cc3n2CCCO)c1 , thanks. 1.38
